Origin of values: PubChem BioAssay (NCI)

- Test system: K-562 leukemia
- Experiment Description: NCI-60 one-dose screen, 48 h (100 = growth as untreated, 0 = no growth, -100 = all killed)
- Measurement Setup: 10 µM
Compounds without any hit were thinned out: in the full panel of roughly 83,000, 20% have a hit.
Observation Type: growth (%)
Output spec: scalar in %, unitless text.

COc1ccc(S(=O)(=O)Nc2c(/C=C\c3cc(OC)c(OC)c(OC)c3)ccc(OC)c2O)cc1
12.3
O=C1Nc2ccccc2C1=NC1CCCCC1
100
O=C(CCCCC[P+](c1ccccc1)(c1ccccc1)c1ccccc1)NC(COC(=O)C(Cl)Cl)(COC(=O)C(Cl)Cl)COC(=O)C(Cl)Cl
98.2
CCCCCCCCN(CCCCCCCC)CCCCCCCCCN1CCCc2cc(OC)ccc21
80.4
Cc1cs/c(=N\NC(=O)c2cc(-c3cc4ccccc4o3)nn2-c2ccccc2)n1-c1ccccc1
94.2

Next:
# input Test system K-562 leukemia; read-out growth; what value for `O=[N+]([O-])c1ccc(N/N=C/c2cccc3ccccc23)nc1` ?
# output 85.4

====

- Tested on: UO-31 renal
- Experiment Description: NCI-60 one-dose screen, 48 h
- Measurement Setup: 10 µM
The panel holds about 83,000 compounds, 20% with a hit somewhere; the sample as a whole holds those more often. The source made the active and inactive calls. Rule for the calls: active = growth percent below 10; inactive = the rest.
A correct response names exactly one class from Yes for active, No for inactive

O=C1/C(=C/c2ccc([N+](=O)[O-])o2)Oc2ccccc21
Yes

# input Please let me know the test result on file for O=C1C(c2ccccc2)C2C=CC(C2)N1O (configuration not stated) .
# output No

# input Tell me the recorded outcome of this test for `CC/C(=C(/c1ccc(OCCN(C)C)cc1)c1ccc(OC(=O)CCC(=O)c2c(C)[nH]c(/C=C3\N=C(c4ccc[nH]4)C=C3OC)c2C)cc1)c1ccccc1` .
# output Yes

# input # fetch the recorded call for `CN(C)CCNC(=O)c1cccn2c(=O)c3cc4ccccc4cc3nc12` here
# output No

====

- Tested on: DU-145 prostate
- Experiment Description: NCI-60 one-dose screen, 48 h (100 = growth as untreated, 0 = no growth, -100 = all killed)
- Measurement Setup: 10 µM
The panel holds about 83,000 compounds, 20% with a hit somewhere; the sample as a whole holds those more often.
Observation Type: growth (%)
Give the value, in units of %, as a plain number.

Consider the reported growth for these compounds:
COc1cc(Cl)cc(-c2nn(-c3cccc(NC(=O)Nc4ccc(Cl)c(C(F)(F)F)c4)c3)cc2-c2ccncc2)c1
15.2
COc1cc2cc3c(nc2cc1OC)CCN3Cc1ccc(NC(=O)c2ccc(Cl)c(C(F)(F)F)c2)cc1
117
O=S(=O)(NCCCNc1nccc(-c2c(-c3ccc(F)cc3)nc3sccn23)n1)c1ccc(F)cc1
44.6

Next up:
# input I have this compound here, `Cn1c(N)c(N=Nc2ccc(S(=O)(=O)Nc3nccs3)cc2)c(=O)n(C)c1=O` , and I need its recorded growth.
# output 106

====

- Test system: UACC-62 melanoma
- Experiment Description: NCI-60 one-dose screen, 48 h (100 = growth as untreated, 0 = no growth, -100 = all killed)
- Measurement Setup: 10 µM
This is part of a sample that, as a whole, favours compounds with a hit. Of some 83,000 tested, about 20% had one in any assay.
Parameter threshold = 80%. Response is fulfilled when growth meets or exceeds it, else not fulfilled.

CCCCCCCCCCCCCCCCCCOCC(COCCOCC[N+]1(CCCCCC(=O)[O-])CCCC1)Oc1ncccn1 (stereo not given)
not fulfilled
COc1cc(NC(=O)CCSc2nc3ccc(C)cc3c(=O)n2Cc2ccccc2)cc(OC)c1OC
fulfilled
CCc1ccc2c(c1)N(CCO)C1=C(C(=O)OC1)C2c1ccccc1 (stereo not given)
not fulfilled
O=C(Nc1ccncc1)C(=O)c1cn(S(=O)(=O)c2cccc(Cl)c2)c2ccccc12
not fulfilled
CCCCC/C=C/C(=O)CCc1ccc(O)c(OC)c1
fulfilled

# input Hi team, for `COc1cc(/C=C2\Oc3cc(OCC(=O)c4ccccc4)ccc3C2=O)cc(OC)c1OC` , is the recorded growth at or above 80%?
# output fulfilled

# input For this molecule, is measured growth 80% or higher? `COc1cc(-c2cc(C(=O)N3CCN(C(=O)c4ccccc4NCc4ccco4)CC3)nc3cc(-c4ccccc4)nn23)cc(OC)c1OC`
# output not fulfilled

# input Tell me whether growth is at least 80% here: c1ccc(C(NC2CC3CCC2C3)c2ccccc2)cc1 (stereo not given)
# output fulfilled

# input Given the entry CCOC(=O)C1(CC(C)C)CCOC1=O (stereo not given) , answer whether its growth meets or surpasses 80%.
# output fulfilled

# input Form field: growth at least 80%? Entry: `CN(C)c1ccc(-c2cc(-c3cccc(NS(C)(=O)=O)c3)nc(N)c2C#N)cc1`
# output not fulfilled

====

- Test system: HCT-15 colon
- Experiment Description: NCI-60 one-dose screen, 48 h (100 = growth as untreated, 0 = no growth, -100 = all killed)
- Measurement Setup: 10 µM
About 83,000 compounds went through this panel and 20% of them were active in at least one assay; those are over-represented in the sample as a whole.
Observation Type: growth (%)
The reply should contain only the number, in %.

Some solved cases for reference:
Nc1ncn([C@@H]2O[C@H](CO)[C@@H](O)[C@H]2O)c(=O)n1
22.9
c1ccc([I+]c2ccccc2)cc1
89.4
Cc1cn(C2CCCCO2)c(=O)nc1NO (stereo not given)
100

# input Record request: growth value, item `COc1ccc(/C=C2/CN(C(=O)c3ccc(C)cc3)C/C(=C\c3ccc(OC)cc3)C2=O)cc1`
# output 91.3

# input Reported growth, molecule `COc1ccccc1CNCCN1C(=O)c2ccc3c4c(ccc(c24)C1=O)C(=O)N(CCNCc1ccccc1OC)C3=O` : ____
# output -77.1

====

- Tested on: SF-295 CNS
- Experiment Description: NCI-60 one-dose screen, 48 h (100 = growth as untreated, 0 = no growth, -100 = all killed)
- Measurement Setup: 10 µM
The panel holds about 83,000 compounds, 20% with a hit somewhere; the sample as a whole holds those more often.
In this section, each of the compounds is paired with its reported growth.
I only need the number, in %, no unit after it.

CCOC(=O)C(CSC(c1ccccc1)(c1ccccc1)c1ccccc1)NC(=O)C(CSC(c1ccccc1)(c1ccccc1)c1ccccc1)NC(c1ccccc1)(c1ccccc1)c1ccccc1 (stereo not given)
86.7
CSCCCNC(=O)c1ccc2c(c1)/C(=C/c1[nH]c(C)cc1C)C(=O)N2
29.2
CCCCC/C=C/C(=O)CCc1ccc(O)c(OC)c1
96.4
CC(=O)C1CCC2C3CC(F)C4=CC(=O)CCC4(C)C3C(O)CC12C (stereo not given)
97.8

Now look at this entry.
# input GET /values?readout=growth&system=SF-295 CNS&item= `COc1ccc(/C=C/C(=O)Nc2ccc(-c3nc4ccc(OC)cc4s3)cc2)cc1`
# output 106

====

- Tested on: MDA-MB-231 breast
- Experiment Description: NCI-60 one-dose screen, 48 h
- Measurement Setup: 10 µM
This is part of a sample that, as a whole, favours compounds with a hit. Of some 83,000 tested, about 20% had one in any assay. Activity calls are given as the source filed them. How the source made its calls: active means growth percent below 10; inactive means the rest.
Select the correct class. Options are active, inactive and nothing else.

Take a look at these entries with their results.
O=C(Nc1cccc(-n2cc(-c3ccncc3)c(-c3ccc(O)c(Cl)c3)n2)c1)c1cccc(C(F)(F)F)c1
active
Fc1ccc(-c2nnc(-c3c(-c4ccc(F)cc4)nc4ccccn34)o2)cc1
inactive
COc1ccc(-c2ccc3cc(C(=O)Nc4ccc(O)c(C(=O)/C=C/c5cc(OC)c(OC)c(OC)c5)c4)ccc3c2)cc1
inactive

# input Which outcome did this test record for the compound `COc1cc(Cl)cc(-c2nn(-c3cccc(NC(=O)Nc4ccc(Cl)c(C(F)(F)F)c4)c3)cc2-c2ccncc2)c1` ?
# output active

# input Look up the recorded call for `Cc1c(Cl)cccc1NC(=O)c1sc2nc3c(cc2c1N)C(=O)CCC3` in this test.
# output inactive

====

- Tested on: LOX IMVI melanoma
- Experiment Description: NCI-60 one-dose screen, 48 h
- Measurement Setup: 10 µM
The panel holds about 83,000 compounds, 20% with a hit somewhere; the sample as a whole holds those more often. Activity calls are given as the source filed them. Rule for the calls: active = growth percent below 10; inactive = the rest.
The reply should be one of these categories: label 1 = active, label 0 = inactive

Here's what some known entries look like.
O=C(NC(Cc1ccc(O)cc1)C(=O)N=Nc1c(O)[nH]c2ccccc12)c1ccccc1 (stereo not drawn)
label 0
CCN(CC)CCCOCCCNc1cc(OC)cc2cccnc12
label 0
O=c1cc(-c2ccccc2)[nH]n1-c1nc2ccccc2[nH]1
label 0
Clc1nc(Cl)c2c(ncn2C/C=C\Cn2cnc3c(Cl)nc(Cl)nc32)n1
label 1
CCOC(=O)CNC(=O)CCCCSc1ncnc2nc[nH]c12
label 0

# input Record lookup: outcome of this test for `Oc1[nH]c2cc(Cl)ccc2c1/C=c1/ccc2c(c1)N=C(c1cc(F)cc(F)c1)N=2` ?
# output label 0

# input Per the records of this test, what outcome belongs to `CCCCCCN1CCN(Cc2ccc(N(CC)CC)cc2)C(=O)C1=O` ?
# output label 0

# input Can you look up the reported call for `Cc1cc(Cc2cc(C)c(O)c(C)c2)cc(C)c1O` for me?
# output label 0

# input Each molecule tested received a call. Report the one for `CCCCCCCCCCCCCCCCCC(=O)OCCCCCCC` .
# output label 0

# input Hi, do you know how `COC(=O)c1ccc(=O)oc1` came out in this test?
# output label 0

# input Name the outcome recorded for COc1ccc2c(c1)N(CCO)C1=C(C(=O)OC1)C2c1cc(OC)c(OC)c(OC)c1 (stereo not drawn) in the assay.
# output label 0

# input Hi, sorry to bother you, what did the test record for `O=c1[nH]c(-c2ccc(Cl)cc2)nc2sc3c(c12)CCCC3` ?
# output label 0

# input What outcome does the record of this test show for `O=C1C(=O)c2ccccc2C(O)=C1CCCc1ccc(C2CCCCCC2)cc1` ?
# output label 0

# input Hi, do you know how `Nc1c(C(=O)Nc2ccccc2Cl)sc2nc3c(cc12)C(=O)CCC3` came out in this test?
# output label 0

# input Test call, this molecule: `CSC1=NCCCC1`
# output label 0
